Test system: CAKI-1 renal
Assay: NCI-60 one-dose screen, 48 h
Settings: 10 µM unless noted
About 83,000 compounds went through this panel and 20% of them were active in at least one assay; those are over-represented in the sample as a whole. Activity calls are given as the source filed them. The calls were made as follows: active = growth percent below 10; inactive = the rest.
Outcome (select one): active, inactive

Past entries and their recorded results:
>>> classification("CC1CCc2c(C(=O)Nc3ncc(Cc4cccc([N+](=O)[O-])c4)s3)csc2C1 (stereo not drawn)")
"inactive"
>>> classification("Cn1cc(C(=O)c2nc(-c3c[nH]c4ccccc34)no2)c2cc(F)ccc21")
"inactive"

For the next question, use this compound.
Prompt: Please indicate how the test categorized C=C1C(=O)O[C@H]2[C@H]1CC/C(COC(=O)c1cc3ccccc3s1)=C\CC[C@@]1(C)O[C@@H]21 .
Completion: active
